System: Aerobactin synthetase IucA (Klebsiella pneumoniae, hypervirulent)
Experimental Details: IucA enzyme inhibition, biochemical, LOPAC library, absorbance readout (AID 1346212);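 also: 100% = no compound wells and 0% = no enzyme wells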
Assay Context: IucA enzyme assay, absorbance (OD) readout; active compounds read low;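 tested at 8 µM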
Recorded remaining activity values for a group of compounds are listed next.
Reported Endpoint: remaining activity (%)

{"Compound": "CC(N)C(=O)OC(C)(C)Cc1ccc(Cl)cc1 (stereo not given)", "Value": 119}
{"Compound": "O=C1c2c(O)ccc(O)c2C(=O)c2c(NCCNCCO)ccc(NCCNCCO)c21", "Value": 110}
{"Compound": "CC(=O)OC(C)C[N+](C)(C)C (stereo not given)", "Value": 119}
{"Compound": "NCC(O)C1CCCCCCC1 (stereo not given)", "Value": 92.7}
{"Compound": "NC(=S)c1ccc[n+]([C@@H]2O[C@@H](COP(=O)([O-])OP(=O)(O)OC[C@H]3O[C@@H](n4cnc5c(N)ncnc54)C(OP(=O)(O)O)[C@H]3O)C(O)C2O)c1 (stereo not given in full)", "Value": 97.1}
{"Compound": "CCCn1c(C)c(C(=O)c2cccc3ccccc23)c2ccccc21", "Value": 107}
{"Compound": "CN/C(=C\\[N+](=O)[O-])NCCSCc1ccc(CN(C)C)o1", "Value": 101}
{"Compound": "CC[N+](C)(C)c1cccc(O)c1", "Value": 86.8}
{"Compound": "Nc1ccc(-c2nc3ccc(-c4nc5ccc(N)cc5[nH]4)cc3[nH]2)cc1", "Value": 114}
{"Compound": "Oc1cc2c(cc1O)CN(C(=S)NCCc1ccc(Cl)cc1)CCC2", "Value": 97.8}
{"Compound": "CC(=O)NCCc1c[nH]c2ccccc12", "Value": 105}
{"Compound": "C[C@]12CCC(=O)C=C1CC[C@@H]1[C@@H]2C(=O)C[C@@]2(C)[C@H]1CC[C@]2(O)C(=O)CO", "Value": 105}
{"Compound": "NCCC1CCCC(CCN)N1 (stereo not given)", "Value": 115}
{"Compound": "CCN(c1nc(N)c(C(=O)N=C(N)N)nc1Cl)C(C)C", "Value": 109}
{"Compound": "Cc1cccc(/C=C/c2ccccc2)n1", "Value": 81}
{"Compound": "NCc1cc(=O)[nH]o1", "Value": 89}
{"Compound": "Brc1c(NC2=NCCN2)ccc2nccnc12", "Value": 105}
{"Compound": "C[C@H](CS)C(=O)N1CCC[C@H]1C(=O)O", "Value": 99.3}
{"Compound": "C[N+](C)(C)CC#CCN1CCCC1=O", "Value": 112}
{"Compound": "CC[C@@H](CO)NC(=O)[C@@H]1C=C2c3cccc4c3c(cn4C)C[C@H]2N(C)C1", "Value": 112}
{"Compound": "NCCNC(=O)c1ccc(Cl)cc1", "Value": 88.1}
{"Compound": "C[n+]1cc2c3c(ccc2c2ccc4cc5c(cc4c21)OCO5)OCO3", "Value": 102}
{"Compound": "CC(N)Cc1c[nH]c2ccc(O)cc12 (stereo not given)", "Value": 122}
{"Compound": "Oc1ccc2c3c1O[C@H]1c4oc5ccccc5c4C[C@@]4(O)C(C2)N(CC2CC2)CCC314 (stereo not given in full)", "Value": 97.5}
{"Compound": "C=C[C@H]1CN2CC[C@H]1C[C@@H]2[C@@H](O)c1ccnc2ccc(OC)cc12", "Value": 115}

Taken from PubChem BioAssay.
